Reference for the values: patent US20240124456A1

# procedure-details: Pharmacokinetic properties in C57 male mice, single dose (plasma, LC-MS/MS)
# Format: in vivo
# cond: mouse, plasma, oral administration 5 mg/kg, read-out: Area under the drug-time curve AUC0-t
measured-endpoint: AUC(0-t) (ng·h/mL)
Value expressed in ng·h/mL; do not type the unit.

Ask | Look at this compound and give its reported AUC(0-t). CN(C)C(=O)N[C@H]1CC[C@H](CCN2CCN3c4cccc5[nH]cc(c45)C[C@H]3C2)CC1 [(−)-I-10]
Reply | 591

###

# procedure-details: Pharmacokinetic properties in C57 male mice, single dose (plasma, LC-MS/MS)
# Format: in vivo
# cond: mouse, plasma, intravenous injection 1 mg/kg, read-out: Area under the drug-time curve AUC0-inf
measured-endpoint: AUC(0-inf) (ng·h/mL)
Value expressed in ng·h/mL; do not type the unit.

Ask | Look at this molecule and give its reported AUC(0-inf). CN(C)C(=O)N[C@H]1CC[C@H](CCN2CCN3c4cccc5[nH]cc(c45)C[C@H]3C2)CC1 [(−)-I-10]
Reply | 215
